Where these numbers come from: patent US6476025B1

Quick reference for melting point among some compounds

CCOc1cc2c(cc1OC)C(c1ccc(CCl)cc1)=N[C@H]1CCCC[C@@H]21 (relative stereo)    151 to 153 °C
COc1cc2c(cc1OC)C1CCCCC1N=C2c1cccc(C(=O)N2CCCCC2)c1 (single isomer, unassigned; (-))    182 to 185 °C
COC(=O)Cc1ccc(C2=N[C@H]3CCCC[C@H]3c3cc(OC)c(OC)cc32)cc1    124 to 125 °C
COc1cc2c(cc1OC)[C@@H]1CCCC[C@@H]1N=C2c1ccc(Oc2ccccc2)cc1    110 to 115 °C
COc1cccc(C(=O)c2ccc(C3=N[C@H]4CCCC[C@H]4c4cc(OC)c(OC)cc43)cc2)c1    146 to 148 °C

Query compound follows.
Query: State the recorded melting point for this entry: `COc1cc2c(cc1OC)[C@@H]1CCCC[C@@H]1N=C2c1ccc(OC)c(N2CCCC2=O)c1`
Response: 147 to 152 °C

---

Quick reference for melting point among some molecules

CCOc1cc2c(cc1OC)C(c1ccc(OCC)c(OCC3CC3)c1)=NC1CCCCC21 (single isomer, unassigned; (-))    102 to 105 °C
COc1cc2c(cc1OC)[C@@H]1CCCC[C@@H]1N=C2c1cccc(OCc2ccccc2)c1    118 to 120 °C
COc1cc2c(cc1OC)[C@@H]1CCCC[C@@H]1N=C2c1ccc(C(=O)CC2CC2)cc1    93 to 98 °C
COc1cc2c(cc1OC)C1CCCCC1N=C2c1ccc(OC)c(N2C(=O)CCC2=O)c1 (single isomer, unassigned; (-))    168 to 177 °C
COc1cc2c(cc1OC)[C@@H]1CCCC[C@@H]1N=C2c1ccc(C(=O)CC(C)C)cc1    114 to 117 °C
COc1cc2c(cc1OC)[C@@H]1CCCC[C@@H]1N=C2c1cccc(C(C)=O)c1    112.5 to 114 °C

Query molecule follows.
Query: State the recorded melting point for this entry: `COc1cc2c(cc1OC)[C@@H]1CCCC[C@@H]1N=C2c1cccc(OCC2CC2)c1`
Response: 54 to 61 °C

---

System: PDE4
test_name: Inhibition of PDE4 activity (method of Bauer and Schwabe, adapted to microtiter plates)
Type: biochemical
measurement_parameters: inhibitory concentration as −log IC50 (mol/l)
Quick reference for −log IC50, inhibition of the PDE4 activity among some molecules
The response must contain the number and no unit.

These solved cases illustrate the format of a correct answer.
COc1cc2c(cc1OC)[C@@H]1CCCC[C@@H]1N=C2c1ccc(OC)c(OC2CCCC2)c1    7.79
CCOc1ccc(C2=N[C@H]3CCCC[C@H]3c3cc(OC)c(OC)cc32)cc1OCC1CC1    7.47
COc1cc2c(cc1OC)[C@@H]1CCCC[C@@H]1N=C2c1cccc(OCC2CC2)c1    7.43
COc1cc2c(cc1OC)[C@@H]1CCCC[C@@H]1N=C2c1cccc(C(C)=O)c1    7.17
COc1cc2c(cc1OC)C1CCCCC1N=C2c1ccc(OCC2CC2)c(OCC2CC2)c1 (single isomer, unassigned; (-))    7.89

Query: State the recorded −log IC50, inhibition of the PDE4 activity for this entry: COc1cc2c(cc1OC)C1CCCCC1N=C2c1ccc(OC)c(N2C(=O)CCC2=O)c1 (single isomer, unassigned; (-))
Response: 7.67

Query: Next entry: `COc1cc2c(cc1OC)[C@@H]1CCCC[C@@H]1N=C2c1ccc(C(=O)c2ccc([N+](=O)[O-])cc2)cc1`
Response: 7.28

Query: Next entry: COc1cc2c(cc1OC)C1CCCCC1N=C2c1ccc(OC)c(OC2CCC2)c1 (single isomer, unassigned; (-))
Response: 7.58

---

Quick reference for −log IC50, inhibition of the PDE4 activity among some molecules
System: PDE4
test_name: Inhibition of PDE4 activity (method of Bauer and Schwabe, adapted to microtiter plates)
Type: biochemical
measurement_parameters: inhibitory concentration as −log IC50 (mol/l)
Method: The activity test was carried out according to the method of Bauer and Schwabe, which was adapted to microtiter plates (Naunyn-Schmiedeberg's Arch. Pharmacol. 1980, 311, 193-198). The PDE reaction takes place in the first step here. […] The inhibitory values determined for the compounds according to the invention [inhibitory concentration as −log Ic50 (mol/l)] follow from the following Table A, in which the numbers of the compounds correspond to the numbers of the examples.
The response must contain the number and no unit.

COc1cc2c(cc1OC)[C@@H]1CCCC[C@@H]1N=C2c1ccc(OCc2ccccc2)c(OCC2CC2)c1    8.09

Query: State its −log IC50, inhibition of the PDE4 activity on PDE4: `COc1ccc(Oc2cccc(C3=N[C@H]4CCCC[C@H]4c4cc(OC)c(OC)cc43)c2)cc1`
Response: 8.78

Query: Next entry: `CCOc1cc2c(cc1OC)C(c1ccc(C(=O)c3ccccc3)cc1)=N[C@H]1CCCC[C@@H]21`
Response: 8.87

Query: Next entry: COc1cc2c(cc1OC)[C@@H]1CCCC[C@@H]1N=C2c1ccc(C(=O)c2ccc(Cl)cc2)cc1 (relative stereo)
Response: 7.3

Query: Next entry: `COc1cc2c(cc1OC)[C@@H]1CCCC[C@@H]1N=C2c1ccc(C(=O)CC2CC2)cc1`
Response: 7.48

Query: Next entry: `COc1cc2c(cc1OC)[C@@H]1CCCC[C@@H]1N=C2c1cc(OCC2CC2)cc(OCC2CC2)c1`
Response: 8.03

Query: Next entry: `COc1cc2c(cc1OC)[C@@H]1CCCC[C@@H]1N=C2c1ccc(S(=O)(=O)c2ccccc2)cc1`
Response: 7.89

---

Quick reference for −log IC50, inhibition of the PDE4 activity among some molecules
System: PDE4
test_name: Inhibition of PDE4 activity (method of Bauer and Schwabe, adapted to microtiter plates)
Type: biochemical
measurement_parameters: inhibitory concentration as −log IC50 (mol/l)
The response must contain the number and no unit.

COc1cc2c(cc1OC)[C@@H]1CCCC[C@@H]1N=C2c1cccc(OCc2ccccc2)c1    8.40

Query: State the recorded −log IC50, inhibition of the PDE4 activity for this entry: CCOc1cc2c(cc1OC)C(c1ccc(CCl)cc1)=N[C@H]1CCCC[C@@H]21 (relative stereo)
Response: 8.59

Query: Next entry: COc1cc2c(cc1OC)C1CCCCC1N=C2c1ccc(C(=O)c2ccncc2)cc1 (single isomer, unassigned; (-))
Response: 7.45

Query: Next entry: `COc1cc2c(cc1OC)[C@@H]1CCCC[C@@H]1N=C2c1ccc(Oc2ccccc2)cc1`
Response: 7.52

Query: Next entry: `COc1cc2c(cc1OC)[C@@H]1CCCC[C@@H]1N=C2c1ccc(C(=O)CC(C)C)cc1`
Response: 7.5

Query: Next entry: `COc1cc2c(cc1OC)[C@@H]1CCCC[C@@H]1N=C2c1cccc(OCCc2ccccc2)c1`
Response: 8.41

Query: Next entry: `COc1cc2c(cc1OC)[C@@H]1CCCC[C@@H]1N=C2c1ccc(OC)c(N2CCCC2=O)c1`
Response: 7.33

Query: Next entry: COc1cc2c(cc1OC)C1CCCCC1N=C2c1ccc(NC(C)=O)c(OCC2CC2)c1 (single isomer, unassigned; (-))
Response: 8.04

Query: Next entry: COc1cc2c(cc1OC)C1CCCCC1N=C2c1ccc(CN2CCN(C)CC2)cc1 (single isomer, unassigned; (-))
Response: 7.27

Query: Next entry: `COc1cc2c(cc1OC)[C@@H]1CCCC[C@@H]1N=C2c1cccc(Oc2ccncc2)c1`
Response: 7.92

Query: Next entry: COc1cc2c(cc1OC)C1CCCCC1N=C2c1ccc(C(=O)N2CCCCC2)cc1 (single isomer, unassigned; (-))
Response: 8.02

Query: Next entry: COc1cc2c(cc1OC)C1CCCCC1N=C2c1ccc(OC)c(N2CCCC2)c1 (single isomer, unassigned; (-))
Response: 7.16

Query: Next entry: `COc1cccc(C(=O)c2ccc(C3=N[C@H]4CCCC[C@H]4c4cc(OC)c(OC)cc43)cc2)c1`
Response: 7.94

Query: Next entry: CCOc1cc2c(cc1OC)C(c1ccc(OCC3CC3)c(OCC3CC3)c1)=NC1CCCCC21 (single isomer, unassigned; (-))
Response: 8.65

---

Quick reference for −log IC50, inhibition of the PDE4 activity among some molecules
System: PDE4
test_name: Inhibition of PDE4 activity (method of Bauer and Schwabe, adapted to microtiter plates)
Type: biochemical
measurement_parameters: inhibitory concentration as −log IC50 (mol/l)
The response must contain the number and no unit.

COc1cc2c(cc1OC)[C@@H]1CCCC[C@@H]1N=C2c1ccc(OC)c(OCC2CC2)c1 [Compound 12]    7.80
COc1cc2c(cc1OC)[C@@H]1CCCC[C@@H]1N=C2c1cccc(Oc2ccccc2)c1 [Compound 5]    8.54
COc1cc2c(cc1OC)[C@@H]1CCCC[C@@H]1N=C2c1ccc(C(=O)c2cccc(Cl)c2)cc1 (relative stereo) [Compound 28]    7.61
CCOc1cc2c(cc1OC)C(c1ccc(OCC)c(OCC3CC3)c1)=NC1CCCCC21 (single isomer, unassigned; (-)) [Compound 39]    8.87
COC(=O)Cc1ccc(C2=N[C@H]3CCCC[C@H]3c3cc(OC)c(OC)cc32)cc1 [Compound 18]    7.49

Query: State the recorded −log IC50, inhibition of the PDE4 activity for this entry: COc1cc2c(cc1OC)C1CCCCC1N=C2c1cccc(C(=O)N2CCCCC2)c1 (single isomer, unassigned; (-)) [Compound 17]
Response: 8.13

Query: Next entry: COc1cc2c(cc1OC)[C@@H]1CCCC[C@@H]1N=C2c1ccc(C(=O)c2ccc(C#N)cc2)cc1 [Compound 31]
Response: 7.8

Query: Next entry: COc1ccc(C(=O)c2ccc(C3=N[C@H]4CCCC[C@H]4c4cc(OC)c(OC)cc43)cc2)cc1 [Compound 26]
Response: 7.46

Query: Next entry: COc1cc2c(cc1OC)[C@@H]1CCCC[C@@H]1N=C2c1cccc(S(=O)(=O)c2ccccc2)c1 [Compound 33]
Response: 8.23

Query: Next entry: CCC(=O)c1ccc(C2=N[C@H]3CCCC[C@H]3c3cc(OC)c(OC)cc32)cc1 [Compound 50]
Response: 7.98

Query: Next entry: COc1cc2c(cc1OC)[C@@H]1CCCC[C@@H]1N=C2c1cccc(OS(C)(=O)=O)c1 [Compound 13]
Response: 8.33
